Here we list compounds with their recorded IC50 when tested on SARS-CoV-2 Main Protease (SARS-CoV-2) (UniProt P0DTD1).
// note: answer is a bare numeric in µM

Worked cases, answers included:
>>> reading("O=C(Nc1cncc2c1CCCC2)[C@@H]1CNS(=O)(=O)c2ccc(Cl)cc21 (stereo in doubt)")
0.205
>>> reading("COc1c(Cl)cccc1Nc1cc(Cl)cc(CC(=O)Nc2cncc3ccccc23)c1")
1.68
>>> reading("O=C(Cc1cc(Cl)cc(N[C@@H](CO)Cc2ccccc2)c1)Nc1cncc2ccccc12 (stereo in doubt)")
2.5
>>> reading("O=C(Cc1cc(Cl)cc(Nc2ccc(F)cc2I)c1)Nc1cncc2ccccc12")
1.76

Next, consider the following compound.
Look up IC50: CS(=O)(=O)c1ccc2cncc(NC(=O)C3CCNc4cc(Cl)c(Cl)cc43)c2c1 (stereo not given) 0.526

###

# condition_info: mdck
readout_type: Fa (%)
Answer in %, number only, no unit symbol.

Requested read-out: Fa. Entry: O=C(Nc1cncc2ccccc12)C1CN(S(=O)(=O)CC2CNC2)Cc2ccc(Cl)cc21 (stereo unspecified) 30.7

###

log10(IC50) reference
# assayed_target: SARS-CoV-2 Main Protease (SARS-CoV-2) (UniProt P0DTD1)
Annotation: log10 of IC50, µM basis.

Consider the worked cases shown below.
>>> reading("CCN(C)S(=O)(=O)N1Cc2ccc(Cl)cc2C2(CCN(c3cncc4ccccc34)C2=O)C1 (centres undefined)")
-0.25
>>> reading("CS(=O)(=O)Cc1ccc(N(C(=O)c2cnc[nH]2)C(C(=O)NCCc2cccc(F)c2)c2cccnc2)cc1 (centres undefined)")
1.61
>>> reading("COc1cccc(CC(=O)Nc2cncc3ccccc23)c1")
1.48
>>> reading("Cc1ccnc(NC(=O)C2CCOc3ccc(Cl)cc32)c1N (centres undefined)")
1.85

Lookup: log10(IC50) / SARS-CoV-2 Main Protease (SARS-CoV-2) (UniProt P0DTD1) / COc1ccccc1CC(=O)Nc1cncc2ccccc12 1.54

Identify the measured log10(IC50) of CN(C(=O)OC(C)(C)C)[C@H]1CCN(c2cc(Cl)cc(CC(=O)Nc3cncc4ccccc34)c2)C1 (stereo in doubt) for SARS-CoV-2 Main Protease (SARS-CoV-2) (UniProt P0DTD1). 0.62

Enter reported log10(IC50) observed with SARS-CoV-2 Main Protease (SARS-CoV-2) (UniProt P0DTD1) for O=C(Cc1cc(Cl)cc(N2CC=C(c3ccccc3)CC2)c1)Nc1cncc2ccccc12 0.22

Give recorded log10(IC50) with SARS-CoV-2 Main Protease (SARS-CoV-2) (UniProt P0DTD1) for the following compound: CC(C)(C)NC(=O)CN1CC(C(=O)Nc2cncc3cc(F)ccc23)c2cc(Cl)ccc2C1=O (centres undefined) 0.00

What is its log10(IC50) for SARS-CoV-2 Main Protease (SARS-CoV-2) (UniProt P0DTD1)? Entry: CCOC(=O)Cn1cc(C(=O)N(c2ccc(C(C)(C)C)cc2)C(C(=O)NCCc2cccc(F)c2)c2cccnc2)nn1 (centres undefined) 1.64

Short answer please: log10(IC50), SARS-CoV-2 Main Protease (SARS-CoV-2) (UniProt P0DTD1), entry NS(=O)(=O)c1ccc(CNC(=O)CC2(C(=O)Nc3cncc4ccccc34)CCOc3ccc(Cl)cc32)cc1 (centres undefined) 0.57
